biological target: mTOR enzyme (mTOR(1360-2549)+GBL) (Homo sapiens); assay: In vitro mTOR kinase assay (TR-FRET); conditions: 0.25 nM mTOR+GBL, 8 uM ATP; values tied to compounds by order of Table 1; 'x or y' = two alternative values for separated diastereomers of unassigned stereochemistry; read-out: activity level (Ki) in the mTOR kinase assay
pKi: −log10 of the molar value.
Use 8 as the dividing line for pKi, with the line itself on the yes (1) side and lower values as no (0).

Reference set, count: 2
1) CCC[C@@]1(C)OCc2c(N3CCOCC3)nc(-c3ccc(NC(=O)NCC)cc3)nc21 [Example 73 ef (R)]; yes (1)
2) COCC[C@]1(C)OCc2c(N3CCOC[C@@H]3C)nc(-c3cnc(N)nc3)nc21 [Example 101 go (S)]; no (0)

Input line: Hi, just wondering whether `C[C@H]1COCCN1c1nc(-c2ccc(NS(=O)(=O)C3CC3)cc2)nc2c1COCC2` shows pKi of 8 or higher.
Output line: no (0)

Input line: Hi, just wondering whether `Cc1nnc(NC(=O)Nc2ccc(-c3nc4c(c(N5CCOC[C@@H]5C)n3)COCC4)cc2)o1` shows pKi of 8 or higher.
Output line: no (0)

Input line: Hi, just wondering whether `CCNC(=O)Nc1ccc(-c2nc3c(c(N4CCOCC4)n2)CCC2(CC2)O3)cc1` shows pKi of 8 or higher.
Output line: yes (1)

Input line: Hi, just wondering whether `CC1(C)OCc2c(N3CCOCC3)nc(-c3ccc4oc(N)nc4c3)nc21` shows pKi of 8 or higher.
Output line: no (0)

Input line: Hi, just wondering whether `C[C@H]1COCCN1c1nc(-c2ccc(NC(=O)Nc3ccn(C)n3)cc2)nc2c1CCCO2` shows pKi of 8 or higher.
Output line: yes (1)

###

# reported pKi; entries follow
target: mTOR enzyme (mTOR(1360-2549)+GBL) (Homo sapiens); assay: In vitro mTOR kinase assay (TR-FRET); settings: 0.25 nM mTOR+GBL, 8 uM ATP; values tied to compounds by order of Table 1; 'x or y' = two alternative values for separated diastereomers of unassigned stereochemistry; read-out: activity level (Ki) in the mTOR kinase assay
The value called pKi is obtained by taking minus log10 of the concentration in mol/L.

Input line: Provide value of pKi for this record tested with mTOR enzyme (mTOR(1360-2549)+GBL) (Homo sapiens): CCNC(=O)Nc1ccc(-c2nc(N3CCOC[C@@H]3C)c3c(n2)[C@@](C)(CCn2ccnc2C)OC3)cc1 [Example 81 et (R)]
Output line: 7.17

Input line: Provide value of pKi for this record tested with mTOR enzyme (mTOR(1360-2549)+GBL) (Homo sapiens): `C[C@H]1COCCN1c1nc(-c2ccc(NC(=O)NC[C@H](O)CO)cc2)nc2c1CCC1(CC1)O2`
Output line: 8.52

Input line: Provide value of pKi for this record tested with mTOR enzyme (mTOR(1360-2549)+GBL) (Homo sapiens): `C[C@H]1COCCN1c1nc(-c2ccc(NC(=O)Nc3ccon3)cc2)nc2c1COCC2`
Output line: 8.70

Input line: Provide value of pKi for this record tested with mTOR enzyme (mTOR(1360-2549)+GBL) (Homo sapiens): CCNC(=O)Nc1ccc(-c2nc(N3CCOC[C@@H]3C)c3c(n2)[C@](C)(CC(C)O)OC3)cc1 (some centres unmarked)
Output line: 8.70

Input line: Provide value of pKi for this record tested with mTOR enzyme (mTOR(1360-2549)+GBL) (Homo sapiens): `C[C@H]1COCCN1c1nc(-c2ccc(NC(=O)NCCS(C)(=O)=O)cc2)nc2c1COCC2`
Output line: 7.34

Input line: Provide value of pKi for this record tested with mTOR enzyme (mTOR(1360-2549)+GBL) (Homo sapiens): `C[C@H]1COCCN1c1nc(-c2ccc(NC(=O)NCCO)cc2)nc2c1COCC2`
Output line: 8.52

Input line: Provide value of pKi for this record tested with mTOR enzyme (mTOR(1360-2549)+GBL) (Homo sapiens): `CCNC(=O)Nc1ccc(-c2nc3c(c(N4[C@@H]5CC[C@H]4COC5)n2)CCCO3)cc1`
Output line: 9.00

Input line: Provide value of pKi for this record tested with mTOR enzyme (mTOR(1360-2549)+GBL) (Homo sapiens): `C[C@H]1COCCN1c1nc(-c2cnc(N)nc2)nc2c1COC2(C)C`
Output line: 7.82

###

target: mTOR enzyme (mTOR(1360-2549)+GBL) (Homo sapiens, UniProt P42345); experiment: In vitro mTOR kinase assay (TR-FRET); conditions: 0.25 nM mTOR+GBL, 8 uM ATP; values tied to compounds by order of Table 1; 'x or y' = two alternative values for separated diastereomers of unassigned stereochemistry; read-out: activity level (Ki) in the mTOR kinase assay
Sequence (P42345 1360-2549, species assumed): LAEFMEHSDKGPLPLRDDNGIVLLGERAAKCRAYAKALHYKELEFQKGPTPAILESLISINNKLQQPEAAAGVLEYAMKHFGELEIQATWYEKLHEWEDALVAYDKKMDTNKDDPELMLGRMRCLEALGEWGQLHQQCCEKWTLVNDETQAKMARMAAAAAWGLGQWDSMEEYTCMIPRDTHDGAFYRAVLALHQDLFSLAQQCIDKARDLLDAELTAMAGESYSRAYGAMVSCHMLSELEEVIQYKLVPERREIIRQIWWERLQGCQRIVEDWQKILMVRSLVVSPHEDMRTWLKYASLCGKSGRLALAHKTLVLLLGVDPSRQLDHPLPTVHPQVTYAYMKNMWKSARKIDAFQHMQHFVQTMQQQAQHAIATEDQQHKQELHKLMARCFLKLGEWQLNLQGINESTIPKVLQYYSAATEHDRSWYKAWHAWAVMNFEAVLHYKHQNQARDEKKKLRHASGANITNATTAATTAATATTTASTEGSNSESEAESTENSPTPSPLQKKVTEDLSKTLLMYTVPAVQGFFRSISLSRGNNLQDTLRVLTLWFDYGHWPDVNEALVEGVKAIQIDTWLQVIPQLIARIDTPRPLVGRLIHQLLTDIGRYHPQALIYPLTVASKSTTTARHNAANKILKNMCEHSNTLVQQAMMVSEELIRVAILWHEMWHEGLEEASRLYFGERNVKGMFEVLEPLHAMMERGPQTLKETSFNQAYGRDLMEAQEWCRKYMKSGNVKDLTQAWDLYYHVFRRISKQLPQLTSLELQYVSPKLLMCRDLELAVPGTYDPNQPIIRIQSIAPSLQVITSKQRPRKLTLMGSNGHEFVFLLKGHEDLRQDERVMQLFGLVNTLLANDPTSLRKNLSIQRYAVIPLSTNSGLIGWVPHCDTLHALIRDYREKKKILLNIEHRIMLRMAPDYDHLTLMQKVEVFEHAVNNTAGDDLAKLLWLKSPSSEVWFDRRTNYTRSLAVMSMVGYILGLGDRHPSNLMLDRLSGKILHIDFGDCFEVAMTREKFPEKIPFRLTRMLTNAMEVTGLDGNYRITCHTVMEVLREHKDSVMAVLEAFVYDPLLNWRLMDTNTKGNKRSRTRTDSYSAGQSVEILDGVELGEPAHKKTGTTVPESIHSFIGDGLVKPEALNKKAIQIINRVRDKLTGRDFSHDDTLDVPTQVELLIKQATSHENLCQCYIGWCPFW
Sequence (Q9BVC4 whole entry partner, species assumed): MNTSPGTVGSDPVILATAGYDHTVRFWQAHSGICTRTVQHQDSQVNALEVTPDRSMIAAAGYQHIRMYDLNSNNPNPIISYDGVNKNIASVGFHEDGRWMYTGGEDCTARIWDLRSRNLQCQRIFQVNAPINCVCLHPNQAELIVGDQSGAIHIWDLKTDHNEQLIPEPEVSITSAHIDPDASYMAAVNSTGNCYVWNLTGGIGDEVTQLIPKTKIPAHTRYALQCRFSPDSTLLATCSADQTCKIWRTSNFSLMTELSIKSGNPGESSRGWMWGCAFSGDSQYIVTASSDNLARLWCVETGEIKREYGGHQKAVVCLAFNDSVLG
endpointLabel: pKi
The value called pKi is obtained by taking minus log10 of the concentration in mol/L.

Sample records with pKi:
1. CNC(=O)Nc1ccc(-c2nc3c(c(N4CCOC[C@@H]4C)n2)COCC3)cc1 [Example 58]; 8.15
2. C[C@H]1COCCN1c1nc(-c2cnc(N)nc2)nc2c1CO[C@]2(C)CCOc1ccccc1 [Example 104 gs (R)]; 6.53
3. CNc1nc2cc(-c3nc(N4CCOC[C@@H]4C)c4c(n3)C(C)(C)OC4)ccc2[nH]1 [Example 125]; 8.00

Then there is this compound:
Input line: Dear colleague, I am looking for the recorded pKi of the following compound: CCNC(=O)Nc1ccc(-c2nc3c(c(N4[C@@H]5CC[C@H]4COC5)n2)COC3)cc1 [Example 98]
Output line: 8.10

###

Target: mTOR enzyme (mTOR(1360-2549)+GBL) (Homo sapiens)
Assay: In vitro mTOR kinase assay (TR-FRET)
Conditions: 0.25 nM mTOR+GBL, 8 uM ATP; values tied to compounds by order of Table 1; 'x or y' = two alternative values for separated diastereomers of unassigned stereochemistry; read-out: activity level (Ki) in the mTOR kinase assay
Source text: a. In Vitro mTOR Kinase Assay The reaction is stopped by an addition of a Terbium-labeled phospho-specific antibody, e.g., Tb-labeled anti-p4E-BP1 T37/T46, (Invitrogen, product #PR8835A), EDTA, and TR-FRET buffer solution (Invitrogen, Product #PR3756B). Product formation is detected by way of time-resolved fluorescence resonance energy transfer (TR-FRET), which occurs when the phosphorylated substrate and labeled antibody are in close proximity due to phospho-specific binding. […]
# reported pKi; entries follow
The value called pKi is obtained by taking minus log10 of the concentration in mol/L.

Sample records with pKi:
1. CC1(C)OCc2c(N3CCOCC3)nc(-c3ccc4c(N)noc4c3)nc21; 7.77
2. O=C(Nc1ccc(-c2nc3c(c(N4[C@@H]5CC[C@H]4COC5)n2)CCC2(CC2)O3)cc1)NC1COC1; 8.70
3. C[C@H]1COCCN1c1nc(-c2ccc(NS(C)(=O)=O)cc2)nc2c1COCC2; 6.57

Input line: Dear colleague, I am looking for the recorded pKi of the following compound: `Nc1ncc(-c2nc3c(c(N4[C@@H]5CC[C@H]4COC5)n2)CCCO3)cn1`
Output line: 7.01

Input line: Dear colleague, I am looking for the recorded pKi of the following compound: `C[C@H]1COCCN1c1nc(-c2ccc(NC(=O)NC[C@@H](O)CO)cc2)nc2c1CCC1(CC1)O2`
Output line: 8.70

Input line: Dear colleague, I am looking for the recorded pKi of the following compound: `CCS(=O)(=O)Nc1ccc(-c2nc3c(c(N4CCOC[C@@H]4C)n2)COCC3)cc1`
Output line: 6.74

Input line: Dear colleague, I am looking for the recorded pKi of the following compound: `C[C@H]1COCCN1c1nc(-c2ccc(NC(=O)NCCO)cc2)nc2c1CCC1(CC1)O2`
Output line: 9.40

Input line: Dear colleague, I am looking for the recorded pKi of the following compound: `CC1(C)OCc2c(N3[C@@H]4CC[C@H]3COC4)nc(-c3cnc(N)nc3)nc21`
Output line: 8.00

Input line: Dear colleague, I am looking for the recorded pKi of the following compound: `CCNC(=O)Nc1ccc(-c2nc3c(c(N4CCOC[C@@H]4C)n2)COCC3)cc1`
Output line: 8.40

Input line: Dear colleague, I am looking for the recorded pKi of the following compound: `C[C@H]1COCCN1c1nc(-c2ccc(NC(=O)Nc3cnn(C)c3)cc2)nc2c1CCC1(CC1)O2`
Output line: 9.00

Input line: Dear colleague, I am looking for the recorded pKi of the following compound: `COC1CCN(c2nc(-c3ccc(Nc4nccc(=O)[nH]4)cc3)nc3c2CCC2(CC2)O3)CC1`
Output line: 6.41

Input line: Dear colleague, I am looking for the recorded pKi of the following compound: `O=c1ccnc(Nc2ccc(-c3nc4c(c(N5CCOCC5)n3)CCC3(CC3)O4)cc2)[nH]1`
Output line: 9.00

Input line: Dear colleague, I am looking for the recorded pKi of the following compound: `C[C@H]1COCCN1c1nc(-c2ccc3c(N)noc3c2)nc2c1COC2(C)C`
Output line: 7.62

Input line: Dear colleague, I am looking for the recorded pKi of the following compound: `Nc1ncc(-c2nc3c(c(N4C[C@H]5CC[C@@H](C4)O5)n2)CCCO3)cn1`
Output line: 6.97

Input line: Dear colleague, I am looking for the recorded pKi of the following compound: `C[C@H]1COCCN1c1nc(-c2ccc(Nc3nccc(=O)[nH]3)cc2)nc2c1CCC1(CC1)O2`
Output line: 9.70

Input line: Dear colleague, I am looking for the recorded pKi of the following compound: CCNC(=O)Nc1ccc(-c2nc(N3CCOC[C@@H]3C)c3c(n2)[C@](C)(CCN2CCC2)OC3)cc1 [Example 79 er (S)]
Output line: 7.51

Input line: Dear colleague, I am looking for the recorded pKi of the following compound: `C[C@H]1COCCN1c1nc(-c2ccc(NC(=O)NC3(CO)CC3)cc2)nc2c1CCC1(CC1)O2`
Output line: 7.70

Input line: Dear colleague, I am looking for the recorded pKi of the following compound: `C[C@H]1COCCN1c1nc(-c2ccc3nc(N)[nH]c3c2)nc2c1COC2(C)C`
Output line: 8.15

Input line: Dear colleague, I am looking for the recorded pKi of the following compound: CCNC(=O)Nc1ccc(-c2nc(N3CCOC[C@@H]3C)c3c(n2)[C@@](C)(CCN2CCC2)OC3)cc1 [Example 79 er (R)]
Output line: 7.24
